# protocol: Cmax in Wistar rat at 10 mg/kg, po after 24 hrs by LC/MS/MS analysis
# Assay type: ADME, organism-based
# Parameters: dose 10 mg/kg, route oral
# testConditions: in vivo
Cmax listing for selected compounds.
endpoint: Cmax (nM)

1. Cc1nc(N)sc1-c1ccnc(Nc2ccc(N3CCOCC3)cc2)n1 = 3900
2. Cc1nc(C)c(-c2ccnc(Nc3ccc(N(C)C)cc3)n2)s1 = 900

* * *

# protocol: Apparent permeability across human Caco-2 cell membrane
# Type: ADME, cell-based
endpoint: Papp

1. Cc1nc(N)sc1-c1ccnc(Nc2ccc(N3CCOCC3)cc2)n1 = 47 ×10⁻⁶ cm/s
2. Cc1nc(C)c(-c2ccnc(Nc3ccc(N(C)C)cc3)n2)s1 = 49.2 ×10⁻⁶ cm/s

* * *

# assaySystem: Mitogen-activated protein kinase 14 (Homo sapiens, UniProt Q16539)
# Sequence (Q16539 whole entry): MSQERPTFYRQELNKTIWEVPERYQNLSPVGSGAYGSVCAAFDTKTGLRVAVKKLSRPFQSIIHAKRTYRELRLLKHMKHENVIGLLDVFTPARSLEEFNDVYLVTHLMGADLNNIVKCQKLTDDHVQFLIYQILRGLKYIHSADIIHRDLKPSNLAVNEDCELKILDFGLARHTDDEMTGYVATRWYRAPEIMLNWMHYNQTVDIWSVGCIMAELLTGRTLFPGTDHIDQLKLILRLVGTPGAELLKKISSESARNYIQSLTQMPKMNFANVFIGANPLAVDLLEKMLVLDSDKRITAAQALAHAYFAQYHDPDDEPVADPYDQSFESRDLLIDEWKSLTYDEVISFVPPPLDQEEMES
# protocol: Inhibition of SAPK2A
endpoint: Ki

1. Cc1nc(N)sc1-c1ccnc(Nc2ccc(N3CCOCC3)cc2)n1 = > 10 µM

* * *

# Tested on: CYP1A2
# protocol: In vitro elimination half life at 5 uM in presence of human recombinant CYP1A2
# Format: ADME
# testConditions: read-out: beta t1/2
endpoint: half-life at 5 µM (h)

1) Cc1nc(N)sc1-c1ccnc(Nc2ccc(N3CCOCC3)cc2)n1 [CYC-116] = 1.2

* * *

Let's go through some Ki measurements on Cyclin-dependent kinase 4 (Homo sapiens, UniProt P11802) together.
Sequence (P11802 whole entry): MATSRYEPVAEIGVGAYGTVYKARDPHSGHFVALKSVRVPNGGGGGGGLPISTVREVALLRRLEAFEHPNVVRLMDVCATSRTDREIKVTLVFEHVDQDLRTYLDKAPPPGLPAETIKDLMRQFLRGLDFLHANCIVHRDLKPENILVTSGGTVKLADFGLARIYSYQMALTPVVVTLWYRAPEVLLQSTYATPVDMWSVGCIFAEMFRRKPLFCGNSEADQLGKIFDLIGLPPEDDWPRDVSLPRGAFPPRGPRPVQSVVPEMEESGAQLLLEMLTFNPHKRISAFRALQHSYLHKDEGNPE
endpoint: Ki (nM)

1) Cc1nc(C)c(-c2ccnc(Nc3ccc(N)cc3)n2)s1 = 807
2) CC(=O)N1CCN(c2ccc(Nc3nccc(-c4sc(C)nc4C)n3)cc2)CC1 = 929
3) CNc1nc(C)c(-c2ccnc(Nc3ccc(N4CCN(C(C)=O)CC4)cc3)n2)s1 = 22
4) COc1cc(Nc2nccc(-c3sc(C)nc3C)n2)cc(OC)c1OC = 666
5) Cc1nc(C)c(-c2ccnc(Nc3ccc(N4CCOCC4)cc3)n2)s1 = 2170
6) CCNc1nc(C)c(-c2ccnc(Nc3ccc(CNC(C)=O)cc3)n2)s1 = 38

* * *

# protocol: Octanol-aqueous buffer partition coefficient, log D at pH 7.4 by shake-flask method
# Assay type: physicochemical
endpoint: logD

1) Cc1nc(N)sc1-c1ccnc(Nc2ccc(N3CCOCC3)cc2)n1 [CYC-116] = 2.74
2) Cc1nc(C)c(-c2ccnc(Nc3ccc(N(C)C)cc3)n2)s1 = 1.33

* * *

pKa listing for selected molecules.
# protocol: Dissociation constant, pKa by pH-metric titration method
# Type: physicochemical
endpoint: pKa

1) Cc1nc(C)c(-c2ccnc(Nc3ccc(N(C)C)cc3)n2)s1 = 5.5
2) Cc1nc(N)sc1-c1ccnc(Nc2ccc(N3CCOCC3)cc2)n1 = 4.4

* * *

# protocol: Apparent volume of distribution with respect to the bioavailability in Wistar rat at 10 mg/kg, po after 24 hrs by LC/MS/MS analysis
# Assay type: ADME, organism-based
# testConditions: in vivo, read-out: Vc/F
endpoint: Vd/F (L/kg)

1) Cc1nc(N)sc1-c1ccnc(Nc2ccc(N3CCOCC3)cc2)n1 = 8.5

* * *

# protocol: Inhibition of PKA
pKi: −log10 of the molar value.
endpoint: pKi

1. Cc1nc(N)sc1-c1ccnc(Nc2ccc(N3CCOCC3)cc2)n1 [CYC-116] = < 5.00
